conditions: in water, 293.15 K
Quantity Kind: solubility (mole fraction)

[[record]]
query_smiles = "COc1cc2c(cc1OC)-c1cc3ccc(OC)c(OC)c3c[n+]1CC2.[Cl-]"
data_value = 0.000877


====

settings: in propylene glycol, 328.15 K
Quantity Kind: solubility (mole fraction)

[[record]]
query_smiles = "COc1cc2c(cc1OC)-c1cc3ccc(OC)c(OC)c3c[n+]1CC2.[Cl-]"
quantity_kind = "solubility (mole fraction)"
data_value = 0.00018


====

details: in ethylene glycol, 323.15 K
Quantity Kind: solubility (mole fraction)

[[record]]
query_smiles = "COc1cc2c(cc1OC)-c1cc3ccc(OC)c(OC)c3c[n+]1CC2.[Cl-]"
quantity_kind = "solubility (mole fraction)"
data_value = 0.00745


====

details: in ethanol, 318.15 K
Quantity Kind: solubility (mole fraction)

[[record]]
query_smiles = "COc1cc2c(cc1OC)-c1cc3ccc(OC)c(OC)c3c[n+]1CC2.[Cl-]"
data_value = 0.00914


====

details: in ethanol, 283.15 K
Quantity Kind: solubility (mole fraction)

[[record]]
query_smiles = "COc1cc2c(cc1OC)-c1cc3ccc(OC)c(OC)c3c[n+]1CC2.[Cl-]"
data_value = 0.00254


====

conditions: in propylene glycol, 323.15 K
Quantity Kind: solubility (mole fraction)

[[record]]
query_smiles = "COc1cc2c(cc1OC)-c1cc3ccc(OC)c(OC)c3c[n+]1CC2.[Cl-]"
data_value = 0.00013

